- Test system: HCC-2998 colon
- PROTOCOL_TEXT: NCI-60 one-dose screen, 48 h
- MEASUREMENT_CONDITIONS: 10 µM unless noted
About 83,000 compounds went through this panel and 20% of them were active in at least one assay; those are over-represented in the sample as a whole. The source made the active and inactive calls. Rule for the calls: active = growth percent below 10; inactive = the rest.
Response enum: 1.0 = active, 0.0 = inactive

Problem: Hi, do you know how Nc1cc2ccccc2c(=O)n1NC(=O)c1ccccc1 came out in this test?
Result: 0.0

Problem: Returns: the outcome recorded for COc1ccc2c(c1)C(Sc1ccc(F)cc1)c1c(nc(N)c(C#N)c1N)O2 (centres undefined) in this assay.
Result: 0.0

Problem: Recorded test outcome, item ClC(Cn1ncc2c(Nc3cccc(Br)c3)nc(SCCN3CCOCC3)nc21)c1ccc(Br)cc1 (centres undefined)
Result: 1.0

Problem: Short answer needed: outcome of this test for CN1C(=O)/C(=C/c2ccco2)S/C1=N/c1nccs1 ?
Result: 0.0

Problem: Call for entry Cc1cccc(/C=C/c2ccc(NC(=S)NCCCCN(C)C)cc2)c1 :
Result: 1.0

Problem: Hi, sorry to bother you, what did the test record for COc1ccc(-n2c(NC(=O)N3CCN(C)CC3)c(C#N)c3ccccc32)cc1 ?
Result: 0.0

Problem: What outcome does the record of this test show for CC(=O)c1ccc2c(N)c(C(=O)Nc3ccc(C(F)(F)F)cc3)sc2n1 ?
Result: 0.0

Problem: Could you check what this test reported for O=C(CSc1nc2sc3c(c2c(=O)n1-c1ccc(Cl)cc1)CCCC3)NNC(=O)c1ccc(Br)cc1 ?
Result: 0.0

Problem: Check the results log: what was the call for CC[C@]12C=CCN3CC[C@@]4(c5ccc(OC)cc5N(C)[C@H]4[C@@](O)(C(=O)OC)[C@@H]1OC(=O)CCCC[P+](c1ccc(F)cc1)(c1ccc(F)cc1)c1ccc(F)cc1)[C@@H]32 ?
Result: 0.0

* * *

- Test system: TK-10 renal
- PROTOCOL_TEXT: NCI-60 one-dose screen, 48 h
- MEASUREMENT_CONDITIONS: 10 µM unless noted
The panel holds about 83,000 compounds, 20% with a hit somewhere; the sample as a whole holds those more often. The source made the active and inactive calls. Rule for the calls: active = growth percent below 10; inactive = the rest.
Your reply should match one of these outcome classes. TRUE = active, FALSE = inactive

Problem: Which outcome was entered for the molecule O=C(Nc1ccc(-c2ccc3c(c2)NC(=O)/C3=C\c2ccc[nH]2)cc1)Nc1cccc(Cl)c1 in this test?
Result: TRUE

Problem: Per the assay record, what outcome was assigned to COc1cc(CNC(=O)C[C@H](C)CCC=C(C)C)ccc1OCc1cn(-c2ccc(Br)cc2)nn1 ?
Result: FALSE

Problem: What was the test verdict on Clc1ccc(-c2nc3ccc(-c4nnc(SCc5ccccc5)o4)cc3[nH]2)cc1 ?
Result: FALSE

Problem: Field: outcome | Entry: CCCCN1C(=O)/C(=C\C(=O)c2cc3ccccc3oc2=O)c2ccccc21
Result: FALSE

Problem: Call for entry Cn1cc(-c2cc(N)n3nc(-c4c[nH]c5ccc(Cl)cc45)cc3n2)c2cccnc21 :
Result: TRUE

Problem: State the result this test recorded for CCCCCCCCc1cccc(CC(=O)Nc2ccc(C)cc2C(=O)O)c1 .
Result: FALSE

Problem: Status in this test for O=C(CSc1nnc(-c2ccc(-c3nc4ccccc4[nH]3)cc2)o1)Nc1ccc(Cl)cc1 ?
Result: FALSE

Problem: Dear colleague, could you share the recorded outcome for CC(=O)c1ccc2c(N)c(C(=O)Nc3ccc(C(F)(F)F)cc3)sc2n1 when you have a moment?
Result: FALSE

Problem: Test call, this molecule: COc1ccc(NC(=O)Cn2c(/C=C/c3ccc([N+](=O)[O-])cc3)nc3ccccc3c2=O)cc1
Result: FALSE

Problem: Query: recorded result category for CCOC(=O)/C(F)=C/C1CC1C1CCN(C(=O)OC(C)(C)C)CC1 (centres undefined) in this test
Result: FALSE

Problem: In this assay, the call recorded for Cc1cccc(NCC(=O)N2CCN(c3ncnc4c3cnn4-c3ccccc3)CC2)c1 was what?
Result: FALSE

Problem: # lookup: test call for CC[C@]12C=CCN3CC[C@@]4(c5ccc(OC)cc5N(C)[C@H]4[C@@](O)(C(=O)OC)[C@@H]1OC(=O)CCCC[P+](c1ccc(F)cc1)(c1ccc(F)cc1)c1ccc(F)cc1)[C@@H]32
Result: FALSE

Problem: Any idea what this test logged for CCOc1ccccc1NC(=O)N/C(N)=N/c1nc2ccccc2s1 ?
Result: FALSE

Problem: For O=C(c1ccc(O)cc1)C1[C@H](c2ccccc2Br)[C@@H](c2ccccc2)NC12C(=O)Nc1ccccc12 (some centres undefined) , which call appears in the assay record?
Result: FALSE

Problem: Outcome? O=C(Nc1ccc(F)cc1)Nc1nc2ccc([N+](=O)[O-])cc2s1
Result: TRUE

Problem: Field: outcome | Entry: CN(CCSSCCN1CCOCC1)C(=O)Oc1cc2c(c3ccccc13)[C@H](CCl)CN2C(=O)c1cc2cc(OCCCN3CCC3)ccc2[nH]1
Result: TRUE

Problem: What classification did CS(=O)(=O)Nc1cc(-c2ccc3ncnc(Nc4ccc(OCc5cccnc5)c(Cl)c4)c3c2)cnc1Cl end up with in this test?
Result: TRUE

Problem: What call does the record list for COc1ccc2[nH]c(=O)c(CSc3ccccc3Nc3nccc(-c4ccc(C(F)(F)F)cc4)n3)cc2c1 ?
Result: FALSE

Problem: Could you check what this test reported for CN1CCc2c(sc3ncnc(N/N=C/c4cccc(Cl)c4Cl)c23)C1 ?
Result: FALSE

* * *

- System: NCI-H23 lung
- PROTOCOL_TEXT: NCI-60 one-dose screen, 48 h
- MEASUREMENT_CONDITIONS: 10 µM unless noted
About 83,000 compounds went through this panel and 20% of them were active in at least one assay; those are over-represented in the sample as a whole. Calls of active or inactive are those of the source. How the source made its calls: active means growth percent below 10; inactive means the rest.
Respond only with the outcome that fits, drawn from active, inactive

Problem: Identify the outcome logged in this assay for the compound shown: CCCSc1nnc(-c2sc3nc4ccccc4n3c2C)o1
Result: inactive

Problem: Outcome logged for Oc1cncc(-c2ccc3ncnc(N4CCc5cc(F)c(Cl)cc54)c3c2)c1 in this assay:
Result: inactive

Problem: Given COC(=O)c1cc(C(=O)CBr)n2c1ccc1c3ccccc3ccc12 , state the outcome it received in this test.
Result: inactive

Problem: Which outcome was assigned to CC1CCc2c(sc3nc(SCC(=O)c4cccc(Br)c4)n(-c4ccccc4)c(=O)c23)C1 (stereo not given) in this test?
Result: inactive

Problem: Assay outcome for O=C1Nc2ccccc2/C1=C/C(=O)c1cc2ccccc2oc1=O : what was it?
Result: inactive

Problem: Please state the recorded outcome for this compound: COC(=O)c1ccc(-c2c(-c3ccccc3)c(F)c3oc(C(=O)OC)c(N)c3c2-c2ccccc2)cc1
Result: inactive

Problem: In this assay, the call recorded for CN(C)c1ccc(/C=C/c2n(Cc3ccc4ccccc4c3)c3ccccc3[n+]2Cc2ccc3ccccc3c2)cc1 was what?
Result: active

Problem: Dear all, I need the recorded test outcome for Nc1nnc(-c2cncc(Br)c2)c(-c2c[nH]c3ccc(Cl)cc23)n1 , thank you.
Result: inactive

Problem: Tell me the recorded outcome of this test for O=C(NN1C(=O)/C(=C/C=C/c2ccc([N+](=O)[O-])o2)SC1=S)c1ccc(O)cc1 .
Result: active

Problem: GET /call?item= FC(F)(F)c1cc2c(Cl)ncnc2n1CCN1CCOCC1 returns the recorded outcome of this test.
Result: inactive

* * *

- System: KM12 colon
- PROTOCOL_TEXT: NCI-60 one-dose screen, 48 h (100 = growth as untreated, 0 = no growth, -100 = all killed)
- MEASUREMENT_CONDITIONS: 10 µM unless noted
Compounds without any hit were thinned out: in the full panel of roughly 83,000, 20% have a hit.
Label Met when growth is at or above 60%; otherwise label Not met.

Problem: Reported growth at or above 60%? Fc1ccc(Nc2nnc(-c3c[nH]c4ccccc34)o2)cc1
Result: Met

Problem: Could you verify whether the entry COC(=O)c1cc(C(=O)CBr)n2c1ccc1c3ccccc3ccc12 shows growth of no less than 60%?
Result: Met

Problem: Evaluate COc1ccc(-c2cc(C(=O)OCc3ccc(Br)cc3)nn2-c2ccc(S(C)(=O)=O)cc2)cc1OC : growth at minimum 60%?
Result: Met

Problem: Say whether Cc1oc(-c2ccccc2)nc1CN[C@@H]1C[C@@H]2C[C@H]([C@H]1C)C2(C)C shows growth of 60% or more.
Result: Met

Problem: Check this molecule for growth at or above 60%: O=C(N/N=C/c1c[nH]c2ccccc12)Nc1ccccc1Cl
Result: Not met

Problem: Textbook exercise: given the entry Cn1cc(-c2cc(N)n3nc(-c4c[nH]c5ccc(Cl)cc45)cc3n2)c2cccnc21 , state whether its growth is greater than or equal to 60%.
Result: Not met

Problem: Does Cc1ccccc1NC(=O)c1cccc(NC(=O)CCl)c1 have a reported growth of at least 60%?
Result: Met

Problem: Record Cc1nc(Nc2ccccn2)sc1C1=NNC(c2ccccc2F)C1 (stereo not given) ; criterion: growth no lower than 60%. Met?
Result: Not met

Problem: Confirm if growth reported for the molecule CCC(=O)c1c2c(c3ccc4c5ccccc5ccc4n13)C(=O)c1ccccc1C2=O is 60% or above.
Result: Met

Problem: Does growth meet or surpass 60% for CN(C(=O)CN1C(=O)/C(=C/c2ccco2)SC1=S)C1CCS(=O)(=O)C1 (stereo not given) ?
Result: Met
